Target: TAOK1 (Homo sapiens, UniProt Q7L7X3)
Sequence (Q7L7X3 1-1001): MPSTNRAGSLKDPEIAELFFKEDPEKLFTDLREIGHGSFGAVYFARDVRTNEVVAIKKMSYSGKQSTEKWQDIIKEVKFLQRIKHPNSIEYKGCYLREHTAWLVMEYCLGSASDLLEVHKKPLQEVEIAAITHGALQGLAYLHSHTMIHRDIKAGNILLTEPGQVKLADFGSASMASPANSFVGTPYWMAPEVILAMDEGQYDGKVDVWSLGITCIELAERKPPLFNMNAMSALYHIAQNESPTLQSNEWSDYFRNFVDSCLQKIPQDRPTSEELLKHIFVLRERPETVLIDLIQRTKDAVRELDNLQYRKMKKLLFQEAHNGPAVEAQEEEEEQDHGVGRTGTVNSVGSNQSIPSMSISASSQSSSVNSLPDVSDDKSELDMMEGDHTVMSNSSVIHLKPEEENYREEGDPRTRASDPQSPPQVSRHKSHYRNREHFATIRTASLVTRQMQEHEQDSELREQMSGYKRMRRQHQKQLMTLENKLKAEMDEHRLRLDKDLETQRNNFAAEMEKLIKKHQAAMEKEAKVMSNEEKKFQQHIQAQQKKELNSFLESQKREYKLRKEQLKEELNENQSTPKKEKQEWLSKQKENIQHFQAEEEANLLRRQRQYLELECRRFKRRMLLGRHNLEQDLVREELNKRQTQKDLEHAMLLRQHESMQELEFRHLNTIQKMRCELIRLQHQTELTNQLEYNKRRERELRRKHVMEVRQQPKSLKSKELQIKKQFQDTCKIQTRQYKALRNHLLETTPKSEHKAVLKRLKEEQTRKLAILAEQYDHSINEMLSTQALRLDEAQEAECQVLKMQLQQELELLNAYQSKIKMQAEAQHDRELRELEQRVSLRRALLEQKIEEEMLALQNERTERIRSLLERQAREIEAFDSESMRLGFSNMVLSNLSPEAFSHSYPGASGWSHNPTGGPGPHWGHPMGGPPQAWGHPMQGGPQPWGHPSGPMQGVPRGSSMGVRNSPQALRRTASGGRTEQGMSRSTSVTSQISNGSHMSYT
MEASUREMENT_NAME: IC50 (nM)
Write the number in nM without appending the unit.

-- ask Request: IC50, test system TAOK1 (Homo sapiens, UniProt Q7L7X3), entry `CCN1CCN(Cc2ccc(NC(=O)c3ccc(C)c(Oc4ncnc5cc(NC)c(OC)cc45)c3)cc2C(F)(F)F)CC1`
-- reply 194

* * *

MEASUREMENT_NAME: IC50

-- ask Query IC50 on UniProt:P09769 for CCN1CCN(Cc2ccc(NC(=O)c3ccc(C)c(Oc4ncnc5cc(NC)c(OC)cc45)c3)cc2C(F)(F)F)CC1 [Compound (I-1)]
Sequence (P09769 whole entry): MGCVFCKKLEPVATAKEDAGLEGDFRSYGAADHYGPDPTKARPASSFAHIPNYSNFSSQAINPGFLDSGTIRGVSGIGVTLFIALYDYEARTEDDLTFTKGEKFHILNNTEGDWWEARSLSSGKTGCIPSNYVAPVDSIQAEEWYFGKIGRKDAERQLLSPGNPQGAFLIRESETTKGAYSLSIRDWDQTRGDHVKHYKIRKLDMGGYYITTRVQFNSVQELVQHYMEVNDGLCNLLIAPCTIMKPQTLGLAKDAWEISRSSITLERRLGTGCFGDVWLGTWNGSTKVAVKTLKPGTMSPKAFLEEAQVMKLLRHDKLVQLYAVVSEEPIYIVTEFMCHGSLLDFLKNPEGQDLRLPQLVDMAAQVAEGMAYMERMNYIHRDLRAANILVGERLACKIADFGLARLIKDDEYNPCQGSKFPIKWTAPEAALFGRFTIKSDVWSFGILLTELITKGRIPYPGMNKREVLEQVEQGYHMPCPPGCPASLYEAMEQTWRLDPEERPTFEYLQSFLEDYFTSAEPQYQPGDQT
-- reply 8.02 nM

* * *

MEASUREMENT_NAME: IC50

-- ask Form: Entry = CCN1CCN(Cc2ccc(NC(=O)c3ccc(C)c(Oc4ncnc5cc(NC)c(OC)cc45)c3)cc2C(F)(F)F)CC1 [Compound (I-1)] | System = SRC (Homo sapiens) | IC50 = ____
-- reply 77.5 nM

* * *

Target: MAP4K1 (HPK1) (Homo sapiens, UniProt Q92918)
Construct: purchased Invitrogen
Sequence (Q92918 whole entry): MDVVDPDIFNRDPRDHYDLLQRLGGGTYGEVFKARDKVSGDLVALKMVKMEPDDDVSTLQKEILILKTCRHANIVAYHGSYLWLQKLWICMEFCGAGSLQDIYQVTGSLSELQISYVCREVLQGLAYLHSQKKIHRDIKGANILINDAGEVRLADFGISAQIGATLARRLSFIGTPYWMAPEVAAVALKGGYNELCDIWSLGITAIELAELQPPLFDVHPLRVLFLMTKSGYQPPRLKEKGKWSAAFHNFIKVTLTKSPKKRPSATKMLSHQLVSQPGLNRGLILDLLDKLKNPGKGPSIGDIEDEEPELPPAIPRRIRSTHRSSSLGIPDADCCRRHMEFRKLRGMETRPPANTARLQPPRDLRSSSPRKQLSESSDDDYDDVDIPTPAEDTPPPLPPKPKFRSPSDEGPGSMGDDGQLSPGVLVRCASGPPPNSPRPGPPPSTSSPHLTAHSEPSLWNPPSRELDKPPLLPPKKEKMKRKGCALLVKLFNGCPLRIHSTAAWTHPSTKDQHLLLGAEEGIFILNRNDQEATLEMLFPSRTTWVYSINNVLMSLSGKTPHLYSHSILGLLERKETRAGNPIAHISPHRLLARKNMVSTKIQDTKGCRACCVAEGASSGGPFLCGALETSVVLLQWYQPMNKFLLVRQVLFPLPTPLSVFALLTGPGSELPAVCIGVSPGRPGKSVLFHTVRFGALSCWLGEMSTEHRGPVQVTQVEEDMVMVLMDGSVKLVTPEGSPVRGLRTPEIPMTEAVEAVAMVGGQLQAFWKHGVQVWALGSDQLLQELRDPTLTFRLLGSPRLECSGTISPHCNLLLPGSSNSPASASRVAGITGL
Assay: Invitrogen kinase assay MAP4K1 (HPK1)
Assay type: biochemical
Method: The IC50 values were also determined for Compound (I-1) using an Invitrogen kinase assay. The results are shown in Table 2, along with comparison data with TL2-059.
MEASUREMENT_NAME: IC50 (µM)
Quick note: give the figure in µM, leave out the unit.

-- ask Could you tell me which IC50 is on file for `CCN1CCN(Cc2ccc(NC(=O)c3ccc(C)c(Oc4ncnc5cc(NC)c(OC)cc45)c3)cc2C(F)(F)F)CC1` ?
-- reply 0.0118
